# RUN_DESCRIPTION: Rat intraduodenal capsule model, % bioavailability
# EXPERIMENTAL_CONTEXT: male, Sprague Dawley, rat, plasma
REPORTED_ENDPOINT: bioavailability

Task: Reported bioavailability, molecule C[C@@H](O)[C@H]1C(=O)N2C(C(=O)O)=C(S[C@@H]3CN[C@H](C(=O)N(C)C)C3)[C@H](C)[C@H]12 [Meropenem, meropenem] : ____
Output: 1%

Task: Reported bioavailability, molecule CC[C@H](C)C[C@H](C)CCCCCCCCC(=O)N[C@H]1C[C@@H](O)[C@@H](NCCN)NC(=O)[C@@H]2[C@@H](O)CCN2C(=O)[C@H]([C@H](O)CCN)NC(=O)[C@H]([C@H](O)[C@@H](O)c2ccc(O)cc2)NC(=O)[C@@H]2C[C@@H](O)CN2C(=O)[C@H]([C@@H](C)O)NC1=O [Caspofungin, caspofungin] : ____
Output: < 1%

Task: Reported bioavailability, molecule Nc1ccn(C[C@@H](CO)OCP(=O)(O)O)c(=O)n1 [Cidofovir, cidofovir] : ____
Output: 2%

###

# RUN_DESCRIPTION: Rat intraduodenal capsule model, % bioavailability
# EXPERIMENTAL_CONTEXT: 4:1 (enhancer:drug), ID, rats; ceftriaxone/carrageenan complex+Laureth-12; daptomycin carrageenan complex+Ceteth-15; CMPD 1+Ceteth-15; cidofovir, meropenem, caspofungin+Ceteth-12
REPORTED_ENDPOINT: Drug plus enhancer % BA (%)
Could you give me the number in %? Just the number is fine.

Task: Reported Drug plus enhancer % BA, compound C[C@@H](O)[C@H]1C(=O)N2C(C(=O)O)=C(S[C@@H]3CN[C@H](C(=O)N(C)C)C3)[C@H](C)[C@H]12 : ____
Output: 28

Task: Reported Drug plus enhancer % BA, compound CN(/N=C/C1=C(C(=O)O)N2C(=O)C(NC(=O)/C(=N\OCF)c3nsc(N)n3)[C@H]2SC1)C(=N)N1CCNCC1 (some centres unmarked) : ____
Output: 30

Task: Reported Drug plus enhancer % BA, compound Nc1ccn(C[C@@H](CO)OCP(=O)(O)O)c(=O)n1 : ____
Output: 44

Where do these numbers come from? They come from patent US20150165029A1.
